Assay: modifiers of F-actin cytoskeleton organization, primary screen, imaging, HUVEC, phalloidin staining, high-content imaging (AID 836)
Conditions: HUVEC TNFa F-actin phalloidin imaging, at 2 µM, stronger effect = higher value
About 160 (0.18%) of roughly 91,000 compounds were called active. Many of the other results were omitted from the sample, so actives are more common in it than they were.
measured-metric: inhibition (%)

1. O=C(Nc1ccccc1Cl)O/N=C(/c1ccccc1)c1ccccn1 ... -5.5
2. CC1CC(C)CN(S(=O)(=O)c2cccc(C(=O)N3C(=O)c4cccc(N)c4C3=O)c2)C1 (stereo not given) ... -15.2
3. O=C(CCc1ccc(S(=O)(=O)N2CCOCC2)cc1)Nc1ccc2ccccc2c1 ... -5
4. C=CCOc1cccc(CNn2cn[nH]c2=S)c1 ... 0.7
5. Cc1cccc(N(CC(=O)Nc2ccc(-c3nc4ccc(C)cc4s3)cc2)S(C)(=O)=O)c1 ... 29.8

----------
Reported inhibition values are given for each entry in this list.
Experiment: modifiers of F-actin cytoskeleton organization, primary screen, imaging, HUVEC, phalloidin staining, high-content imaging (AID 836)
Conditions: HUVEC TNFa F-actin phalloidin imaging, at 2 µM, stronger effect = higher value
The campaign covered roughly 91,000 compounds. About 160 (0.18%) were called active. The sample holds actives, similar compounds and a random draw of the others, so the mix is not that of the screen.
measured-metric: inhibition (%)

1) CCCCCCOC(=O)NCC(O)c1ccccc1 (configuration not stated) ... 61.8
2) CCCSc1nsc(N)n1 ... 8.5
3) Cc1cc(OC(=O)c2ccc(Cl)cc2)cc(=O)n1C ... 2.4
4) COc1ccc(Nc2nc(-c3ccccc3)cs2)cc1 ... 11.3
5) Cn1c2ccccc2n2c(=O)c(=O)n(CC(=O)c3ccc(F)cc3)nc12 ... -17.3
6) Cc1ccc(NC(=S)Nc2ncccc2C)c(C)c1 ... -17.2
7) CCCCOC(=O)NCN1C(=O)C2C3C=CC(C3)C2C1=O (configuration not stated) ... 11.5
8) CCc1cccc2c(C=C(C#N)C#N)cn(CC(=O)N3CCCCC3)c12 ... 9.3
9) CCOC(=O)N1CCN(c2c(NCCCN3CCCC(C)C3)c(=O)c2=O)CC1 (configuration not stated) ... 8.2
10) NC(=O)COc1ccc(/C=N/NC(=O)C2CCCN2S(=O)(=O)c2ccc(Cl)cc2)cc1 (configuration not stated) ... -7.7
11) C=CCOc1c2ccc(C(=O)N(CC)c3ccc(OC)cc3)cc2nn1C ... 12.9
12) COc1ccc(-c2csc3nc(-c4ccccc4F)oc(=O)c23)cc1OC ... -3.2

----------
Assay: modifiers of F-actin cytoskeleton organization, primary screen, imaging, HUVEC, phalloidin staining, high-content imaging (AID 836)
Conditions: HUVEC TNFa F-actin phalloidin imaging, at 2 µM, stronger effect = higher value
Among all 91,000 compounds or so, about 160 (0.18%) were called active. Only a selection was taken, and actives are over-represented in it overall.
measured-metric: inhibition (%)

1) COC(=O)c1ccc(C(=O)OC)c(NC(=S)N2CCCCC2)c1 ... -4.3
2) Cc1occc1C(=O)NNC(=S)NCC(C)C ... -20.3
3) O=C(O)COc1ccc(-c2nccc(-c3cccs3)n2)cc1 ... 29.5
4) COCCN1C(=O)c2oc3c(C)cc(C)cc3c(=O)c2C1c1cccc(O)c1 (stereo unspecified) ... 53.6
5) Cc1cccc(-n2cnc(C(=O)Nc3cccnc3)c2)n1 ... 1.4
6) O=C(CSCc1ccc([N+](=O)[O-])cc1)NCCSCc1ccccc1 ... -4.8
7) COc1nc(-c2ccc(Cl)cc2)ccc1-c1noc(-c2cccs2)n1 ... 19.6
8) COc1cccc(NC(=O)c2nn(C34CC5CC(CC(C5)C3)C4)cc2[N+](=O)[O-])c1 ... 14
9) c1ccc(C2CCC(N3CCC(N4CCCCC4)CC3)CC2)cc1 (stereo unspecified) ... 26.6
10) COc1ccc(OC)c2sc(NC(=O)C3COc4ccccc4O3)nc12 (stereo unspecified) ... -2.9
11) O=C1c2oc3ccccc3c(=O)c2C(c2cccc(O)c2)N1c1ccccn1 (stereo unspecified) ... -31.1

----------
Reported inhibition values are given for each entry in this list.
Experiment: modifiers of F-actin cytoskeleton organization, primary screen, imaging, HUVEC, phalloidin staining, high-content imaging (AID 836)
Settings: HUVEC TNFa F-actin phalloidin imaging, at 2 µM, stronger effect = higher value
Out of some 91,000 compounds screened, about 160 (0.18%) were called active. The full list was thinned out, with actives kept by preference.
measured-metric: inhibition (%)

1) CCOC(=O)CSc1nc2sc3c(c2c(=O)[nH]1)CC(C)(C)OC3 ... 4.9
2) O=C(NC1CCN(C(=S)NCc2ccco2)CC1)c1ccc(F)cc1 ... 9.8
3) COc1ccc(CN(C(=O)CSc2nnc(-c3ccc(OC)c(OC)c3)o2)c2ccc(F)cc2)cc1 ... 15.5
4) CC(C)(C)Cc1nnc(NC(=O)c2cc(-c3ccccc3)nc3ccccc23)s1 ... 15.7
5) COc1ccc(CCNC(=O)CSc2nnc(-c3cccc(F)c3)o2)cc1OC ... 2.3
6) Cc1ccc(OCC(=O)Nc2cccc3c2CCCC3)cc1C ... -5.6
7) CCOC(=O)Cn1c(SC)nc2sc3c(c2c1=O)CC(C)(C)OC3 ... 81.7
8) Cc1cc(C)cc(OCC(=O)Nc2nc3ccc([N+](=O)[O-])cc3s2)c1 ... -19.8
9) O=C(CNC(=O)c1cc2c(s1)CCC2)Nc1ccccc1Br ... 9.1
10) COc1ccc(-c2nnc(SCC(=O)NC3CCCCC3)o2)cc1OC ... 30.5
11) CCOC(=O)NNC(=O)c1ccc(Cl)cc1 ... 18

----------
Test: modifiers of F-actin cytoskeleton organization, primary screen, imaging, HUVEC, phalloidin staining, high-content imaging (AID 836)
Details: HUVEC TNFa F-actin phalloidin imaging, at 2 µM, stronger effect = higher value
About 160 (0.18%) of roughly 91,000 compounds were called active. For the sample, actives were picked, then their nearest neighbours and some compounds at random.
Reported inhibition values are given for each entry in this list.
measured-metric: inhibition (%)

1. N=c1oc2ccccc2cc1C(=O)N/N=C/c1ccccc1 ... -3.7
2. Cc1cc(N=CC2=C(O)CCCC2=O)no1 ... 3.6
3. CCOC(=O)c1nn(-c2cccc(C)c2)cc1C(=O)c1ccccc1 ... 5.4
4. COc1ccccc1C(=O)NN1C(=O)C2C3C=CC(O3)C2C1=O (stereo unspecified) ... -1
5. COc1cc(C2CC(=O)c3cnc(NC(C)=O)nc3C2)cc(OC)c1OC (stereo unspecified) ... -1.6
6. COc1ccc(O)c(C(=O)c2cnc3onc(C(C)C)c3c2)c1 ... 0.9
7. N#CC1=C(N)N(c2ccc(F)cc2)C(=O)C1 ... -25.3
8. O=C(Nc1ncc2c(n1)CC(c1ccco1)CC2=O)c1ccc(Cl)cc1 (stereo unspecified) ... 100
9. CCC(=O)OCc1c(C(F)(F)F)nn(C)c1Oc1cccc(C(F)(F)F)c1 ... -4
10. O=C1CCCC2=C1C(c1ccccc1)n1c(s/c(=C/c3cccc(F)c3)c1=O)=N2 (stereo unspecified) ... 0.6
11. COc1ccc(/C=C(/NC(=O)c2ccc(C)cc2)c2nc3ccccc3[nH]2)cc1OC ... 24.6

----------
Experiment: modifiers of F-actin cytoskeleton organization, primary screen, imaging, HUVEC, phalloidin staining, high-content imaging (AID 836)
Settings: HUVEC TNFa F-actin phalloidin imaging, at 2 µM, stronger effect = higher value
Screen size: about 91,000 compounds; about 160 (0.18%) were called active. The entries come from a sample that favours actives as a whole.
measured-metric: inhibition (%)

1. COc1ccc(C(=O)N2CCc3cc(OC)c(OC)cc3C2c2cccc([N+](=O)[O-])c2)cc1 (centres undefined) ... -0.9
2. O=C(NC1CCCCC1)c1cc([N+](=O)[O-])ccc1N1CCOCC1 ... -40.7
3. COc1ccc(C(=S)Nc2ccccc2)cc1 ... 2.8
4. CCCc1ccc(-c2c(C)sc(NC(=O)c3ccnn3C)c2C#N)cc1 ... 10
5. COc1cccc(NC(=O)C2c3cc(OC)c(OC)cc3C(=O)N(C)C2c2cccnc2)c1 (centres undefined) ... 29
6. C=CCn1c(Oc2ccc(C(=O)OC)cc2)nc2c1c(=O)n(C)c(=O)n2C ... 13.6
7. CN1OC(COC(=O)c2ccc(Cl)cc2)CC1c1ccccc1 (centres undefined) ... 6.5
8. CCCCOC(=O)Nc1sc2nc(C)cc(C)c2c1-n1cccc1 ... 14.1
9. COc1cc(/C=C(/NC(=O)c2ccccc2)C(=O)Nc2cccc(O)c2)c([N+](=O)[O-])cc1OC ... 7.4
10. Cc1ccc(C(=O)N/C(=C/C=C/c2ccccc2)C(=O)NCc2ccco2)cc1 ... 19.4
11. CC1CCc2c(c3ccccc3[nH]c2=O)O1 (centres undefined) ... 3
12. N#C/C(=C/c1ccc(Cl)cc1)NC(=O)c1ccccc1 ... -6.5
13. COC(=O)c1ccc(C2C(Oc3ccccc3C)C(=O)N2CCc2ccc(OC)c(OC)c2)cc1 (centres undefined) ... 3.1
14. O=C1CN(c2nc(-c3ccccc3)c3cc(Br)ccc3n2)c2ccccc2N1 ... -17.8

These entries and their values trace back to PubChem BioAssay AID836.
